A collection of molecules and their measured log10(Ki)
# measured.target: recombinant human 5-HT5A receptor (Homo sapiens)
# Construct: membranes
# Sequence (P47898 whole entry): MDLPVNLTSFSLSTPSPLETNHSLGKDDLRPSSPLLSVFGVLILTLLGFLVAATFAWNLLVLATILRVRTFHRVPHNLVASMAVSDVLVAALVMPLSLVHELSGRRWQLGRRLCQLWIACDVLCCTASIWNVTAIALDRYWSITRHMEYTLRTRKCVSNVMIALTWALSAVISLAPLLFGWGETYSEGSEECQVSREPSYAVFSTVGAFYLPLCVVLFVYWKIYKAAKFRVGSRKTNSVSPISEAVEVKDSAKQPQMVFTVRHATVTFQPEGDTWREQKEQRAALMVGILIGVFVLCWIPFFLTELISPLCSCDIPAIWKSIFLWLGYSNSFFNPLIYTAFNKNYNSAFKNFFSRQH
# assay.overview: [3H]LSD radioligand binding assay
# measurement.context: [3H]LSD (approximately 1 nM); membranes from HEK-EBNA cells transiently expressing 5-HT5A receptors; Ki calculated from IC50 using the Cheng-Prussoff equation
reported.endpoint: log10(Ki) (log10 of the value in nM)

molecule | log10(Ki)
COc1ccccc1CNc1ccc2cc(NC(=O)NC3CCN(C(=O)CC(F)(F)F)CC3)ccc2n1 [Example 26] | 1.56
COc1ccccc1CNc1ccc2cc(NC(=O)NC3CCN(C(=O)CF)CC3)ccc2n1 [Example 27] | 1.20
Cc1ccc(CNc2ccc3cc(NC(=O)NC4CCN(C)CC4)ccc3n2)o1 [Example 29] | 1.10
COc1ccccc1CNc1ccc2cc(NC(=O)C3CC3)ccc2n1 [Example 32] | 0.81
COc1ccccc1CNc1ccc2cc(NC(=O)CN3CCN(C)CC3)ccc2n1 [Example 33] | 1.52
COc1ccccc1CNc1ccc2cc(NC(=O)NC3CCN(CCSC)CC3)ccc2n1 [Example 30] | 0.77
COc1ccccc1CNc1ccc2cc(NS(=O)(=O)N3C[C@@H]4C[C@H]3CO4)ccc2n1 [Example 19] | 0.90
COc1ccccc1CNc1ccc2cc(NS(=O)(=O)NC3CC3)ccc2n1 [Example 20] | 1.43
COc1ccccc1CNc1ccc2cc(NC(=O)NC3CCN(C)CC3)ccc2n1 [Example 17] | 0.43
COc1ccccc1CNc1ccc2cc(NC(=O)NC3CCN(C(C)C)CC3)ccc2n1 [Example 25] | 0.83
COCC(=O)N1CCC(NC(=O)Nc2ccc3nc(NCc4ccccc4OC)ccc3c2)CC1 [Example 31] | 1.31
COc1ccccc1CNc1ccc2cc(NS(=O)(=O)N(C)C)ccc2n1 [Example 10] | 1.23
Cc1ccc(CNc2ccc3cc(NC(=O)NC(C)C)ccc3n2)o1 [Example 21] | 1.44
COc1ccccc1CNc1ccc2cc(NC(=O)NC3CCN(C4CC4)CC3)ccc2n1 [Example 28] | 0.83
COc1ccccc1CNc1ccc2cc(NC(=O)NC3CCN(CCF)CC3)ccc2n1 [Example 24] | 0.92
COc1ccc(CNc2ccc3cc(NC(=O)NC(C)C)ccc3n2)cc1 [Example 18] | 1.69
COCCN1CCC(NC(=O)Nc2ccc3nc(NCc4ccccc4OC)ccc3c2)CC1 [Example 23] | 0.81
COc1ccccc1CNc1ccc2cc(NC(=O)NC(C)C)ccc2n1 [Example 14] | 0.52
